Hey, just so you know, these numbers are from ChEMBL document CHEMBL1201862.

# Test system: HT-29
# PROTOCOL SUMMARY: NCI tumour cell line growth inhibition, 48 h
Active and inactive are the calls of the source. No stated cut-off is given here; in the data, active = GI50 up to about 1.1 µM and inactive = higher. *1 amine or outer side, *2 acyl side, *3 side chain or, on linkers, in order; H or OH if unused. Where a SMILES comes first, the peptide text is derived from it. The star is where a group is joined. γGlu = O=C(O)[CH](CCC(=O)[*:2])N[*:1]; NHOH = ON*
ENDPOINT: GI50

I have this compound here, CC1OC(OC2C(CO)OC(O[C@H]3CC[C@@]4(C)C(=CC[C@H]5[C@@H]6C[C@@H]7O[C@](O)(CC[C@@H](C)COC8OC(CO)C(O)C(O)C8O)[C@@H](C)[C@@H]7[C@@]6(C)CC[C@@H]54)C3)C(OC3OC(C)C(O)C(O)C3O)C2O)C(O)C(O)C1O (stereo partly drawn) , and I need its recorded GI50.
1.98 µM (inactive)

Queued: CC(C(=O)OCc1ccccc1)N(Cc1ccccc1)Cc1ccccc1 (stereo not drawn)
46.8 µM (inactive)

Queued: `C=C1CN=C(Nc2ccc(Cl)cc2)S1`
> 100 µM (inactive)

Queued: NC(CCC(=O)NC(CCC(=O)NO)C(=O)NCC(=O)O)C(=O)O (stereo not drawn) (γGlu-Glu(NHOH)-Gly-OH; configuration not given here)
> 100 µM (inactive)

Queued: `COc1ccc(-c2onc(-c3c(C)cc(C)cc3C)c2C2=NCCN2)cc1`
25.5 µM (inactive)

Queued: `NNC(=O)CNc1cccc(Br)c1`
> 100 µM (inactive)

Queued: N#CC12C(=O)N3C(=NC(c4ccco4)NC3c3ccco3)C1(C#N)C(c1ccco1)NC1=C2CCCC1 (stereo not drawn)
> 100 µM (inactive)

Queued: `O=C1/C(=C/c2ccc(Cl)cc2)CCC/C1=C\c1ccc(O)c(CN2CCCCC2)c1`
3.54 µM (inactive)

====

# System: HCC 2998
# PROTOCOL SUMMARY: NCI tumour cell line growth inhibition, 48 h
Calls of active or inactive are those of the source. Cut-off read from the data, not from the text of the source: active = GI50 up to about 1.1 µM and inactive = higher.
ENDPOINT: GI50

I have this compound here, COc1ccc(NC(=O)CC(=O)N2N=C(N(c3ccccc3)c3ccccc3)CC2c2ccccc2)cc1 (stereo not given) , and I need its recorded GI50.
> 100 µM (inactive)

Queued: C#C/C=C/CC1OC(C(Br)CC)CC(Br)C2CC1O2 (stereo not given)
56 µM (inactive)

Queued: CC(=O)OCC1OC(OC2CC3C(C)(C)C(OC(C)=O)CC[C@]3(C)C3CCC45CC4(CCC5[C@@H](C)C[C@H](O)C(O)C(C)(C)O)[C@]23C)C(O)C(O)C1O (stereo not given in full)
> 10 µM (inactive)

Queued: O=C(/C=C/c1ccc(O)cc1)c1ccc(O)cc1 [4,4'-DIHYDROXYCHALCONE]
24 µM (inactive)

Queued: `C/C(CN1C(=O)c2ccccc2C1=O)=N\NS(=O)(=O)c1ccc(Br)cc1`
> 100 µM (inactive)

Queued: CC(C)=CCC1=C(O)C(=O)c2ccccc2C1=O [LAPACHOL]
86.3 µM (inactive)

Queued: `CCOC(=O)c1ccc(Nc2nc3ccccc3n3cccc23)cc1`
35 µM (inactive)

Queued: CC(C)=CC(Cc1ccccc1)S(=O)(=O)c1nc2ccccc2s1 (stereo not given)
19.2 µM (inactive)

Queued: `CNC(=O)Oc1ccc(-c2cn3cc(OC(=O)NC)ccc3n2)cc1`
49.3 µM (inactive)

Queued: CCN(CC)c1ccc2c(c1)OC(=O)C(c1nnc(-c3ccc([N+](=O)[O-])cc3)o1)C2 (stereo not given)
> 100 µM (inactive)

Queued: CSc1c([S+](C)[O-])c2ccccc2n1C (stereo not given)
> 100 µM (inactive)

Queued: `Cc1nc(C)c(N2CCN(S(=O)(=O)N(Cc3ccccc3)Cc3ccccc3)CC2)c(O)n1`
> 100 µM (inactive)

Queued: `Cc1c2cnccc2c(C)c2c1[nH]c1ccc(O)cc12`
1.57 µM (inactive)

Queued: O=C1OCC2OC(=O)c3cc(O)c(O)c(O)c3-c3c(O)c(O)c(O)c4c3C(=O)OC(C2OC(=O)c2cc(O)c(O)c(O)c2-c2c1cc(O)c(O)c2O)C1OC(=O)c2c-4c(O)c(O)c(O)c2[C@@H]1C(O)C(O)C(O)C(O)CO (stereo not given in full)
21.6 µM (inactive)

Queued: `CC1=C(C(=O)NNC(=O)C[N+](C)(C)C)CC(C(=O)NNC(=O)C[N+](C)(C)C)=C(C)N1`
> 100 µM (inactive)

Queued: CC1(C)O[C@H]2OC(CO[Si](C)(C)C(C)(C)C)C(N=[N+]=[N-])[C@H]2O1 (stereo not given in full)
17.8 µM (inactive)

Queued: O=C1CCCCC1S(=O)(=O)c1ccccc1 (stereo not given)
> 100 µM (inactive)

Queued: `CC(C)(C)C(=O)C(C(=O)c1ccccc1)C(=O)C(C)(C)C`
> 100 µM (inactive)

Queued: `CCCCCCCCCCSC(=O)NC`
47.2 µM (inactive)

Queued: CC1=CC2C(=O)N(c3ccccc3)C(=O)C2CC1n1[nH]c(=O)n(Cc2ccccc2)c1=O (stereo not given)
> 100 µM (inactive)

====

Answer each item with its documented GI50.
# System: OVCAR-8
# PROTOCOL SUMMARY: NCI tumour cell line growth inhibition, 48 h
Calls of active or inactive are those of the source. Rule as the data show it: active = GI50 up to about 1.1 µM and inactive = higher.

I have this compound here, `Cc1nc2ccccc2nc1NS(=O)(=O)c1ccc(N)cc1` , and I need its recorded GI50.
> 100 µM (inactive)

Queued: `O=C(/C=C1\N=C(c2ccccc2)N(c2nc3c(Cl)cc(Cl)cc3s2)C1=O)/C=C/c1ccccc1`
> 100 µM (inactive)

Queued: `Clc1ccc(-c2cc(-c3nc4ccccc4[nH]3)no2)cc1`
33.8 µM (inactive)

Queued: `Nc1n[nH]c2nc3ccc(C(F)(F)F)cc3nc12`
19.8 µM (inactive)

Queued: N#CCC(=O)N/N=C1/C(=O)N(c2cc(Cl)ccc2Cl)C(=O)C(=O)C1c1nc2ccccc2s1 (configuration not stated)
81.5 µM (inactive)

Queued: `CC[C@@H](/C=C\CCC1(C[C@@H](N)CCC=C(C)C)OCCO1)O[Si](C(C)C)(C(C)C)C(C)C`
11.9 µM (inactive)

Queued: COc1cc2c(cc1OC)C13CCN4CC5CCOC6CC(=O)N2C1C6C5CC43 (configuration not stated)
> 100 µM (inactive)

Queued: O=C1OC(=O)C2=C1C(c1cccs1)C=C(c1cccnc1)N2c1ccncc1 (configuration not stated)
21.6 µM (inactive)

Queued: `Cc1nc(C)c(N2CCNCC2)c(O)n1`
> 100 µM (inactive)

Queued: `COC(=O)C1=CC(=O)[C@@H]2CCCC[C@H]12`
> 100 µM (inactive)

Queued: `S=C(c1c[nH]c2ccccc12)N1CCOCC1`
> 100 µM (inactive)

Queued: `O=[N+]([O-])c1cccc(Cl)c1Oc1ccc(S(=O)(=O)N/C(=N\O)Nc2ccc(Cl)cc2)cc1`
16.3 µM (inactive)

Queued: COc1ccc(C2C3CCc4ccccc4C3=NN2S(=O)(=O)c2ccc(Cl)cc2)cc1 (configuration not stated)
41.6 µM (inactive)

Queued: `COc1ccc(Cn2c3c(cc(OS(=O)(=O)C(F)(F)F)c2=O)Cc2ccccc2-3)cc1`
13.3 µM (inactive)

Queued: `C=C1CN=C(Nc2ccc(Cl)cc2)S1`
> 100 µM (inactive)

Queued: CSc1c([S+](C)[O-])c2ccccc2n1C (configuration not stated)
> 100 µM (inactive)

Queued: `CC1(C)CC[C@]2(C(=O)O)CC[C@]3(C)C(=CCC4=C5C[C@H](O)[C@H](O)[C@@](C)(CO)[C@@]5(C)CC[C@]43C)[C@@H]2C1`
44.3 µM (inactive)

Queued: `Cc1ccc(C(=O)N/N=C(\N=N\c2cccc(C)c2)c2ccc(N(CCC#N)CCC#N)cc2C)cc1`
43.3 µM (inactive)

Queued: `Cc1nnc(N)s/c1=N/O`
> 100 µM (inactive)

Queued: `CN(c1ccccc1)S(=O)(=O)c1ccc([N+](=O)[O-])cc1`
> 100 µM (inactive)

Queued: CC(=O)NC(Cc1ccccc1)NC(=O)O (configuration not stated)
> 100 µM (inactive)

Queued: O=[N+]([O-])O [NITRIC ACID]
> 100 µM (inactive)

====

# System: DU-145
# PROTOCOL SUMMARY: NCI tumour cell line growth inhibition, 48 h
Calls of active or inactive are those of the source. Cut-off read from the data, not from the text of the source: active = GI50 up to about 1.1 µM and inactive = higher.
ENDPOINT: GI50

I have this compound here, `CN(C)/C=N/S(=O)(=O)c1nn2c(C=O)c(-c3cc4ccccc4oc3=O)nc2s1` , and I need its recorded GI50.
5.56 µM (inactive)

Queued: `c1cc(NNc2cccc(-c3nnn[nH]3)c2)cc(-c2nnn[nH]2)c1`
> 100 µM (inactive)

Queued: `O=C1Oc2ccccc2N/C1=C/C(=O)c1ccc(Cl)cc1`
> 100 µM (inactive)

Queued: `Cc1ccc2c(O)cc(-c3cccs3)nc2n1`
30.5 µM (inactive)

Queued: `COc1ccc(Cn2c3c(cc(OS(=O)(=O)C(F)(F)F)c2=O)Cc2ccccc2-3)cc1`
20.2 µM (inactive)

Queued: `CC(C)OP(=O)(OC(C)C)C(C(F)(F)F)C(F)(F)F`
> 100 µM (inactive)

Queued: COc1cc(NCC2COc3c(ccc(OC)c3OC)C2=O)c([N+](=O)[O-])cc1OC (stereo not given)
> 100 µM (inactive)

Queued: COc1cccc(NC(=O)CC(=O)N2N=C(C)C(/N=N/c3ccc(C(=O)O)cc3)C2=O)c1 (stereo not given)
> 100 µM (inactive)

Queued: COC(=O)C(C)(C)NC(=O)C(Cc1ccccc1)Nc1ncnc2c1ncn2-c1ccc(OC)cc1 (stereo not given)
47.3 µM (inactive)

Queued: O=NN(Cc1ccc(Cl)cc1)C(C(=O)O)c1ccccc1 (stereo not given)
> 100 µM (inactive)
